Each recorded value in this set is attributed to patent US5159081A.

Target: mu receptor (Rattus norvegicus)
Construct: The brain tissue, rat whole brain minus cerebellum for mu was homogenized; from tissue; host or cells: brain minus cerebellum of male Sprague Dawley rats, homogenate fraction
Sequence (P33535 whole entry): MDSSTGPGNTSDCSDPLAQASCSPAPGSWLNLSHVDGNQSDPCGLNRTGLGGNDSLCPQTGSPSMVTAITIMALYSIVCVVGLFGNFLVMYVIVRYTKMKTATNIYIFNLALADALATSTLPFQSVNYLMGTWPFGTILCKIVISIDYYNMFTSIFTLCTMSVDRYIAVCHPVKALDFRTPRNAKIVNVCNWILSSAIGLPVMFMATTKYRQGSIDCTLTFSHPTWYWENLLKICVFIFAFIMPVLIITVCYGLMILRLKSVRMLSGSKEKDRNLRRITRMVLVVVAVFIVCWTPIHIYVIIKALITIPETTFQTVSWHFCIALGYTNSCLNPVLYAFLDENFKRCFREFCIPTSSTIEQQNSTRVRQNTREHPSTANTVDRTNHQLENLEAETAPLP
Experiment: Naloxone [3H] opioid receptor binding assay (mu receptor)
Set-up: species or system rat (male Sprague Dawley)
Details: 20 min, pH 7.4, read-out: % displacement at 10 nM
Think of 80% as a floor: if inhibition at 0.01 µM stands on it or above, it is Fulfilled; beneath it, Not fulfilled.

| compound | assigned category |
| --- | --- |
| CC1CN(CCNC(=O)[C@H](CCCNC(=N)N[N+](=O)[O-])NC(=O)OC(C)(C)C)CCC1(C)c1cccc(O)c1 (some centres unmarked) | Not fulfilled |
| CC1CN(C[C@H](CC2CCCCC2)NC(=O)CCCC(=O)O)CCC1(C)c1cccc(O)c1 (single isomer, unassigned; (+)) | Fulfilled |
| C[C@@H]1CN(C[C@H](CC2CCCCC2)NC(=O)CCCC(=O)OCC(N)=O)CC[C@]1(C)c1cccc(O)c1 | Not fulfilled |

Challenge: Determine whether measured inhibition at 0.01 µM meets or exceeds 80% for C[C@H]1CN(CCCN(CC2CCCCC2)C(=O)CCCC(=O)O)CC[C@@]1(C)c1cccc(O)c1 (relative stereo) [Example 27, monohydrate]
Response given: Not fulfilled

Challenge: Confirm if inhibition at 0.01 µM reported for the compound "CNC(=O)COC(=O)CCCC(=O)N[C@@H](CC1CCCCC1)CN1CC[C@@](C)(c2cccc(O)c2)[C@@H](C)C1" is 80% or above.
Response given: Fulfilled

Challenge: Is inhibition at 0.01 µM for CCOC(=O)CCC(=O)NC(CCN1CC[C@@](C)(c2cccc(O)c2)[C@@H](C)C1)CC(C)C (single isomer, unassigned) [Example 2A] at or above 80%?
Response given: Fulfilled

----------
Let's look at some compounds and their measured log10(ED50).
Biological target: UniProtKB P42866
Assay: mouse diarrhea test: precipitated diarrhea in morphine-maintained mice (peripheral opioid activity)
Assay type: in vivo
Settings: mouse diarrhea test; morphine-maintained mice; subcutaneous or oral; 30 min observation
Structures can show the parent of a compound that is named as a salt.
Log scale reminder: ED50 in mg/kg, then log10 taken.

| compound | log10(ED50) |
| --- | --- |
| CCNC(=O)COC(=O)CCCC(=O)N[C@@H](CC1CCCCC1)CN1CC[C@](C)(c2cccc(O)c2)[C@H](C)C1 | -1.70 |
| CCNC(=O)COC(=O)CCCC(=O)N[C@@H](CC1CCCCC1)CN1CC[C@@](C)(c2cccc(O)c2)[C@@H](C)C1 | -2.30 |
| CNC(=O)CC(=O)N(CCN1CC[C@@](C)(c2cccc(O)c2)[C@@H](C)C1)C1CCCCC1 (relative stereo) [Example 36, monohydrate] | -0.41 |
| CC(C)C(=O)NCCCC(=O)NC(CCCNC(=N)N[N+](=O)[O-])C(=O)NC(CCN1CC[C@@](C)(c2cccc(O)c2)[C@@H](C)C1)c1ccccc1 (single isomer, unassigned; (-)) | -0.60 |
| C[C@H]1CN(CC(Cc2ccccc2)NC(=O)CCCNC(=O)OC(C)(C)C)CC[C@@]1(C)c1cccc(O)c1 (stereo partly drawn) [Example 18, monohydrochloride] | -0.52 |

Challenge: What does the data say about its log10(ED50)? Entry: C[C@H]1CN(C[C@H](CC2CCCCC2)NC(=O)CCCC(=O)O)CC[C@@]1(C)c1cccc(O)c1 [Example 45D]
Response given: -1.54

----------
Biological target: mu receptor (Rattus norvegicus)
Construct: The brain tissue, rat whole brain minus cerebellum for mu was homogenized; from tissue; host or cells: brain minus cerebellum of male Sprague Dawley rats, homogenate fraction
Assay: Naloxone [3H] opioid receptor binding assay (mu receptor)
Set-up: species or system rat (male Sprague Dawley)
Conditions: 20 min, pH 7.4, read-out: % displacement at 10 nM
Where a name gives a salt, the structure may show the parent alone.
Decision: inhibition at 0.01 µM >= 70% yields rule met, all other cases yield rule not met.

Challenge: Record "CCOC(=O)CCCC(=O)N[C@@H](CC1CCCCC1)CN1CC[C@@](C)(c2cccc(O)c2)[C@@H](C)C1" ; criterion: inhibition at 0.01 µM no lower than 70%. Met?
Response given: rule met

Challenge: Decide: is the reported value of inhibition at 0.01 µM for CC(C)CC(CCN1CC[C@@](C)(c2cccc(O)c2)[C@@H](C)C1)NC(=O)CCCC(=O)O (stereo partly shown) equal to or greater than 70%?
Response given: rule met

Challenge: Check the entry C[C@H]1CN(C[C@@H](CC2CCCCC2)NC(=O)CCCC(=O)O)CC[C@@]1(C)c1cccc(O)c1 [Example 46D] : does inhibition at 0.01 µM equal or exceed 70%?
Response given: rule not met

Challenge: Given the entry C[C@H]1CN(CCC(NC(=O)CCCC(=O)O)C2CCCCC2)CC[C@@]1(C)c1cccc(O)c1 (stereo in doubt) [Example 5, monohydrochloride monohydrate] , answer whether its inhibition at 0.01 µM meets or surpasses 70%.
Response given: rule met

----------
Target: opioid receptor (Mus musculus)
Construct: Five CF-1 male mice (Charles River, Portage, MI); from tissue; host or cells: living CF-1 male mice (whole animal, endogenous receptor)
Sequence (P42866 whole entry): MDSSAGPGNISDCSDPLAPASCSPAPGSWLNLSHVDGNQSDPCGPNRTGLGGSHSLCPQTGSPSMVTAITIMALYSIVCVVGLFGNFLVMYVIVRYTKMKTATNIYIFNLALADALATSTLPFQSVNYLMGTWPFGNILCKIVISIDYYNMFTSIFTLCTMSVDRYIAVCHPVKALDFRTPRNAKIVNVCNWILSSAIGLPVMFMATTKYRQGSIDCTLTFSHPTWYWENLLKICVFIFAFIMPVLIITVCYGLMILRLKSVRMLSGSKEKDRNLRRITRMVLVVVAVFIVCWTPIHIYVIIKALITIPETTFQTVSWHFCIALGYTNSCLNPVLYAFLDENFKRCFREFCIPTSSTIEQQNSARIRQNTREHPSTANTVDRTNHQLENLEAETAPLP
Assay: in vivo
Parameters: species or system CF-1 male mice
Details: sc; mouse writhing test; […]; s.c. 20 min before acetic acid; read-out: AD50 (the source's name)
Structures can show the parent of a compound that is named as a salt.
Overview of recorded ED50 for various compounds

Some entries whose results are on file:
| compound | assay value |
| --- | --- |
| CCOC(=O)CCCC(=O)N[C@@H](CC1CCCCC1)CN1CC[C@](C)(c2cccc(O)c2)[C@H](C)C1 | > 40 mg/kg |
| C[C@H]1CN(CCCN(C(=O)CCCC(=O)O)C2CCCCC2)CC[C@@]1(C)c1cccc(O)c1 (relative stereo) | 0.61 mg/kg |
| C[C@@H]1CN(C[C@H](CC2CCCCC2)NC(=O)CCCC(=O)OCC(N)=O)CC[C@]1(C)c1cccc(O)c1 | > 10 mg/kg |
| CNC(=O)COC(=O)CCCC(=O)N[C@@H](CC1CCCCC1)CN1CC[C@](C)(c2cccc(O)c2)[C@H](C)C1 | > 40 mg/kg |

Challenge: So what does the record say about ED50 for "CCNC(=O)COC(=O)CCCC(=O)N[C@@H](CC1CCCCC1)CN1CC[C@@](C)(c2cccc(O)c2)[C@@H](C)C1" ?
Response given: 12.2 mg/kg

Challenge: Recorded ED50 for CC(=O)NC(CCN1CC[C@@](C)(c2cccc(O)c2)[C@@H](C)C1)c1ccccc1 (stereo in doubt) , please?
Response given: 30 mg/kg

Challenge: # query: ED50 of entry "CC(C)COC(=O)CCCC(=O)N[C@@H](CC1CCCCC1)CN1CC[C@](C)(c2cccc(O)c2)[C@H](C)C1"
Response given: > 40 mg/kg

Challenge: Data request, read-out ED50, for "CCOC(=O)CCCC(=O)N[C@@H](CC1CCCCC1)CN1CC[C@@](C)(c2cccc(O)c2)[C@@H](C)C1"
Response given: 28 mg/kg

Challenge: What does the data say about its ED50? Entry: "C[C@H]1CN(C[C@H](CC2CCCCC2)NC(=O)CCCC(=O)OCC(N)=O)CC[C@@]1(C)c1cccc(O)c1"
Response given: 22 mg/kg

Challenge: Look up ED50: "CCCOC(=O)CCCC(=O)N[C@@H](CC1CCCCC1)CN1CC[C@@](C)(c2cccc(O)c2)[C@@H](C)C1"
Response given: 27 mg/kg

Challenge: // query ED50 value for entry CCOC(=O)CC(=O)N[C@H](Cc1ccccc1)CN1CC[C@](C)(c2cccc(O)c2)[C@H](C)C1 [Example 12, hydrochloride]
Response given: 20 mg/kg

Challenge: Recorded ED50 of C[C@H]1CN(CCN(C(=O)CC(N)=O)C2CCCCC2)CC[C@@]1(C)c1cccc(O)c1 (relative stereo) [Example 34, monohydrate] , please.
Response given: 8.2 mg/kg

Challenge: Query: ED50; subject: "CCCCCCCOC(=O)CCCC(=O)N[C@@H](CC1CCCCC1)CN1CC[C@@](C)(c2cccc(O)c2)[C@@H](C)C1"
Response given: > 40 mg/kg

Challenge: May I ask what ED50 has been recorded for CC1CN(CCNC(=O)[C@H](CCCNC(=N)N[N+](=O)[O-])NC(=O)OC(C)(C)C)CCC1(C)c1cccc(O)c1 (some centres unmarked) ?
Response given: > 2 mg/kg

----------
Molecular target: mu receptor (Rattus norvegicus)
Construct: The brain tissue, rat whole brain minus cerebellum for mu was homogenized; from tissue; host or cells: brain minus cerebellum of male Sprague Dawley rats, homogenate fraction
Test: Naloxone [3H] opioid receptor binding assay (mu receptor)
Design: species or system rat (male Sprague Dawley)
Settings: 20 min, pH 7.4, read-out: % displacement at 10 nM
measure: inhibition at 0.01 µM
Express your answer as a number followed by its unit.

| compound | inhibition at 0.01 µM |
| --- | --- |
| COC(=O)[C@H](Cc1ccccc1)NC(=O)CCC(=O)N(CCN1CCC(C)(c2cccc(O)c2)C(C)C1)C1CCCCC1 (stereo partly drawn) | 87% |
| COC(=O)CCCC(=O)N[C@@H](CC1CCCCC1)CN1CC[C@@](C)(c2cccc(O)c2)[C@@H](C)C1 | 87% |

# input for lookup
Challenge: Request: inhibition at 0.01 µM, test system mu receptor (Rattus norvegicus), entry C[C@H]1CN(CC(Cc2ccccc2)NC(=O)CCCC(=O)O)CC[C@@]1(C)c1cccc(O)c1 (relative stereo) [Example 15, monohydrate]
Response given: 80%
